biological target: T1, cynomolgus monkey BCMA (cynomolgus monkey, UniProt A0A2K5UD97 1-53); experiment: SPR, IgG immobilised, 37 C
T1 construct: Soluble analyte in SPR; construct not described; also called cyBCMA; Cyno BCMA
T1 sequence (A0A2K5UD97 entry or part of it): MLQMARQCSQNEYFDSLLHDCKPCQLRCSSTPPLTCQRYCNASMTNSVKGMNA
recordedMetric: Kd
Report as: number unit

Example entries and their recorded answers appear below.
- binder: "L3.PY/L1.AH/H3.AQ (antibody, V domains shown, IgG) VH: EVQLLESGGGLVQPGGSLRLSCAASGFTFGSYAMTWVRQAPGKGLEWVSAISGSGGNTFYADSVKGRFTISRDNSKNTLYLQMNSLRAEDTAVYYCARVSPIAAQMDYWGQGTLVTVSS VL: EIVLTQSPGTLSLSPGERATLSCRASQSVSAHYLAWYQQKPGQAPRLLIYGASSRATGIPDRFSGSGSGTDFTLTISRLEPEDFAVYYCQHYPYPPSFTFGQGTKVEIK"
  recordedMetric: "Kd"
  assayValue: "1.78 nM"
- binder: "L3.PY/L3.KY/P6E01 (antibody, V domains shown, IgG) VH: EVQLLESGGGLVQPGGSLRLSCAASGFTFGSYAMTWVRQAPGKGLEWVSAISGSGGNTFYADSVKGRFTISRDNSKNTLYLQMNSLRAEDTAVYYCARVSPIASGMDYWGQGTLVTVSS VL: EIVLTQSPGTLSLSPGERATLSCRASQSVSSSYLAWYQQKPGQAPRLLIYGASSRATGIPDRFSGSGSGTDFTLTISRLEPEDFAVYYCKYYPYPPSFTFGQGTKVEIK"
  recordedMetric: "Kd"
  assayValue: "2.21 nM"

Next binder, please.
Problem: Quick one: Kd of L3.PY/L1.AH/H2.YQ (antibody, V domains shown, IgG) VH: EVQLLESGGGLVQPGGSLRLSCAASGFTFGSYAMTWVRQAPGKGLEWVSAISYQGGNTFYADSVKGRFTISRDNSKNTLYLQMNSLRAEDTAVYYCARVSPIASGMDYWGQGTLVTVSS VL: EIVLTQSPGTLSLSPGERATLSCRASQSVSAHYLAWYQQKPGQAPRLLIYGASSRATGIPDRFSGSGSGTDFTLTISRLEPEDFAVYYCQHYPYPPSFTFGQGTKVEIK ?
Result: 2.74 nM
